# Assayed system: GABA-A receptor; anion channel
# Test: Displacement of [35S]TBPS from Gamma-aminobutyric acid A (GABA-A) receptor of rat cerebral cortex
# pIC50 annotations
On this scale, pIC50 is minus log10 of a concentration expressed in M (mol/L).

C[C@@H]1CC(=O)[C@H]2O[C@@H]1OC2(C)C : 2.55
CC1(C)OC2CCC(=O)C1O2 (stereo not drawn) : 2.29
C=CC(C)(C)c1cccc2[nH]c3c(c12)C[C@@H]1CC[C@@]2(O)C4=CC(=O)[C@@H]5O[C@@]4(CC[C@]2(C)[C@@]31C)OC5(C)C : 5.37
CC1CC(=O)C2OC1(C)OC2(C)C (stereo not drawn) : 2.64
CC1CC(=O)C2OC1OC2(C)C (stereo not drawn) : 2.52

Which measured pIC50 value corresponds to CCC1CCCCC1=O (stereo not drawn) ? 2.92

Item under review: C[C@H]1CC(=O)[C@@H]2O[C@H]1OC2(C)C . Reported pIC50? 2.51

I am curious: what pIC50 value has been reported for CC12CCC(=O)C(O1)C(C)(C)O2 (stereo not drawn) ? 2.50
